Hi there, I'd appreciate the recorded TGI for every entry that follows.
# Tested on: HOP-92 NSCLC
# PROTOCOL DESCRIPTION: NCI tumour cell line growth inhibition, 48 h

Solved cases (8 shown):
- N=C1C(O)C2(I)c3ccccc3N3C(=N)C(O)C4c5ccccc5N1C4C32 (stereo not drawn): > 100 µM
- c1cc[c]([Sn][c]2ccccc2)cc1: 47.5 µM
- C/C=C/C(C#N)O[Si](C)(C)C (stereo not drawn): > 100 µM
- Cc1c2cnccc2c(C)c2c1c1cc(C#N)ccc1n2C: 0.708 µM
- C=CCn1c(=O)c(C)cn(COCCO)c1=O: > 100 µM
- O=C1OCC2=C1C(c1cccc(F)c1)c1cc3c(cc1N2CCO)OCO3 (stereo not drawn): > 50 µM
- CC12CCC(CC(=O)/C1=C(/Br)I)C2(C)C (stereo not drawn): 31.6 µM
- CC(=O)c1c(-c2cccc3ccccc23)c(C#N)c(=S)n(C2OC(CO)C(O)C(O)C2O)c1C (stereo not drawn): > 100 µM

Can you give me TGI for all of these, one by one?
1. O=c1ncccn1[C@@H]1O[C@H](CO)[C@H](O)C1O (stereo partly drawn)
2. Oc1cccc(Nc2nc3ccccc3c3occc23)c1
3. CN(C)c1cc2ccccc2oc1=O
4. CC(=O)O[C@H]1CC(C)(C)C(=C=C/C(C)=C/C=C/C=C/C=C(C)/C=C2C=C(/C=C/[C@@]34O[C@]3(C)C[C@@H](O)CC4(C)C)C(=O)O/2)[C@](C)(O)C1
5. CC(C)=CCN1c2ccccc2NC(=O)CC1C (stereo not drawn)

Response:
1: > 100 µM; 2: 21.3 µM; 3: > 100 µM; 4: > 100 µM; 5: > 100 µM
